target: CyclinA2/CDK2 (Homo sapiens, UniProt P20248); construct: purchased CRELUX Protein Services; test: Fluorescence Polarization (FP) competitive binding assay, Cyclin A2/Cdk2; conditions: 8 nM Cyclin A2/Cdk2, 2 nM FAM probe; average of 2-3 independent experiments; read-out: Cyclin A FP IC50;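 note: plates equilibrated two hours at room temperature before polarization reading, IC50 fitted from eight-concentration compound titration curves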
*1 amine or outer side, *2 acyl side, *3 side chain or, on linkers, in order; H or OH if unused. Where a SMILES comes first, the peptide text is derived from it. Bridges are numbered along the chain shown (N, C = ends). [ ]: non-standard residue; d: D form. The star is where a group is joined. X106 = CN([C@@H](Cc1cc(Cl)ccc1-c1ccc(N2CCN(Cc3ccccn3)CC2)cc1)C(=O)[*:2])[*:1]; X144 = CN([C@@H](Cc1cc(Cl)ccc1-c1ccc(N2CC(C)(F)C2)nc1)C(=O)[*:2])[*:1]; NMeAla(5-Cl-2-cPrO-3-pyridyl) = CN[C@@H](Cc1cc(Cl)cnc1OC1CC1)C(=O)O; NMehhhLys(Me) = CN([C@@H](CCCCCCCN(C)[*:3])C(=O)[*:2])[*:1]; NMe(hhhLys) = CN([C@@H](CCCCCCCN[*:3])C(=O)[*:2])[*:1]; X214 = CC(C)Cc1ccc(Cl)cc1C[C@@H](C(=O)[*:2])N(C)[*:1]; X33 = CN([C@@H](Cc1cc(Cl)cc2c1OCCO2)C(=O)[*:2])[*:1]; Cyclobutanecarbonyl(1-CF3) = O=C(C1(C(F)(F)F)CCC1)*; cBuCO(3,3-F2-1-CF3) = O=C(C1(C(F)(F)F)CC(F)(F)C1)*; Pro(trans-4-F) = O=C(O)[C@@H]1C[C@@H](F)CN1; Gly(cPr) = N[C@H](C(=O)O)C1CC1
Param label: returns Criterion met when IC50 < 30 nM, returns Criterion not met otherwise, including exact equality.

Q: # TODO verify IC50 < 30 nM strictly for this compound: CC(C)C[C@@H]1NC(=O)[C@@H](N(C)C(=O)[C@@H](NC(=O)[C@@H]2C[C@@H](F)CN2C(=O)C2(C(F)(F)F)CC(F)(F)C2)C2CC2)CCCCCCCN(C)C(=O)[C@H](Cc2cc(Cl)ccc2-c2ccc(N3CCN(Cc4ccccn4)CC3)cc2)N(C)C1=O [Example 368] ({cBuCO(3,3-F2-1-CF3)}-[Pro(trans-4-F)][Gly(cPr)][NMehhhLys(Me)]L[X106]; lactam 3-C)
Result: Criterion met

Q: Identify whether the compound CC(C)Cc1ccc(Cl)cc1C[C@H]1C(=O)NCCCCCCC[C@H](N(C)C(=O)[C@@H](NC(=O)[C@@H]2C[C@@H](F)CN2C(=O)C2(C(F)(F)F)CC(F)(F)C2)C2CC2)C(=O)N[C@@H](CC(C)C)C(=O)N1C [Example 64] ({cBuCO(3,3-F2-1-CF3)}-[Pro(trans-4-F)][Gly(cPr)][NMe(hhhLys)]L[X214]; lactam 3-C) records IC50 below 30 nM.
Result: Criterion not met

Q: Dear colleague, could you confirm whether IC50 of CC(C)C[C@@H]1NC(=O)[C@@H](N(C)C(=O)[C@@H](NC(=O)[C@@H]2C[C@@H](F)CN2C(=O)C2(C(F)(F)F)CC(F)(F)C2)C2CC2)CCCCCCCN(C)C(=O)[C@H](Cc2cc(Cl)cc3c2OCCO3)N(C)C1=O [Example 321] ({cBuCO(3,3-F2-1-CF3)}-[Pro(trans-4-F)][Gly(cPr)][NMehhhLys(Me)]L[X33]; lactam 3-C) falls below 30 nM? Thanks.
Result: Criterion met

Q: A record lists CC(C)C[C@@H]1NC(=O)[C@@H](N(C)C(=O)[C@@H](NC(=O)[C@@H]2C[C@@H](F)CN2C(=O)C2(C(F)(F)F)CC(F)(F)C2)C2CC2)CCCCCCCN(C)C(=O)[C@H](Cc2cc(Cl)ccc2-c2ccc(N3CC(C)(F)C3)nc2)N(C)C1=O [Example 402] ({cBuCO(3,3-F2-1-CF3)}-[Pro(trans-4-F)][Gly(cPr)][NMehhhLys(Me)]L[X144]; lactam 3-C) . Is its IC50 below 30 nM?
Result: Criterion met

Q: A record lists CC(C)C[C@@H]1NC(=O)[C@@H](N(C)C(=O)[C@@H](NC(=O)[C@@H]2C[C@@H](F)CN2C(=O)C2(C(F)(F)F)CCC2)C2CC2)CCCCCCCNC(=O)[C@H](Cc2cc(Cl)cnc2OC2CC2)N(C)C1=O [Example 108] ({Cyclobutanecarbonyl(1-CF3)}-[Pro(trans-4-F)][Gly(cPr)][NMe(hhhLys)]L[NMeAla(5-Cl-2-cPrO-3-pyridyl)]; lactam 3-C) . Is its IC50 below 30 nM?
Result: Criterion not met

Q: hey, is IC50 for CC(C)C[C@@H]1NC(=O)[C@@H](N(C)C(=O)[C@@H](NC(=O)[C@@H]2C[C@@H](F)CN2C(=O)C2(C(F)(F)F)CC(F)(F)C2)C2CC2)CC=CCCCCN(C)C(=O)[C@H](Cc2cc(Cl)ccc2-c2cnn(C3CC3)c2)N(C)C1=O lower than 30 nM or not?
Result: Criterion not met
